These data points were gathered from paper PMC7802075.

molecular target: UniProt:E9AFX2; experiment: biochemical; type: biochemical
Sequence (E9AFX2 whole entry): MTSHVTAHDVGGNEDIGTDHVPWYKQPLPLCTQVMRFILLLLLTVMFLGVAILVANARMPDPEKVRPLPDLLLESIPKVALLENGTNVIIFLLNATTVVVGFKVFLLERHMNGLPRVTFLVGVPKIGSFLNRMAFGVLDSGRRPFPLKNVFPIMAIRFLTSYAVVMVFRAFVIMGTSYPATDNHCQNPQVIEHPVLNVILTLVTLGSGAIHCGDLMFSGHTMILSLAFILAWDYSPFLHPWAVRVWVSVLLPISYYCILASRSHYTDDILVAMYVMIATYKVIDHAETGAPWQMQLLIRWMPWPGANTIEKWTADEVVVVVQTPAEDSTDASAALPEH
outcome_measure: 20mM inhibition LmjIPCS (%)

INSERT INTO measurements (compound, tested_system, value) VALUES
  ('O=c1[nH]c2ccccc2n1C1CCN(CCCC(c2ccc(F)cc2)c2ccc(F)cc2)CC1 [pimozide 10, pimozide, reference compound]', 'UniProt:E9AFX2', 77),
  ('CN(C)[C@@H]1C(O)=C(C(N)=O)C(=O)[C@@]2(O)C(O)=C3C(=O)c4c(O)cccc4[C@@](C)(O)[C@H]3C[C@@H]12', 'UniProt:E9AFX2', 36),
  ('Cn1cnc([N+](=O)[O-])c1Sc1ncnc2nc[nH]c12', 'UniProt:E9AFX2', 39),
  ('C[C@@H]1[C@H](O)[C@@H](C)/C=C/C=C/CC/C=C/C=C/C=C/C=C/C(O[C@H]2O[C@H](C)[C@@H](O)[C@H](N)[C@@H]2O)CC2O[C@](O)(CC(O)C(O)CCC(O)CC(O)CC(O)CC(=O)O[C@H]1C)CC(O)C2C(=O)O (stereo partly shown)', 'UniProt:E9AFX2', 32);
